measurement protocol: Induction of necrosis in Wistar rat neutrophils
Type: cell-based
assay context: neutrophil
parameter: Activity

response.value for CCCCCCCCCCn1cc(-c2cc3ccccc3oc2=O)nn1 (field: Activity) = Non-toxic

molecule O=c1oc2ccccc2cc1-c1cn(-c2ccccc2)nn1 , Activity observed: Non-toxic

The value of Activity measured for the molecule CCCCCCCCn1cc(-c2cc3ccccc3oc2=O)nn1 turned out to be Non-toxic

Lab book: Activity of CCCCCCn1cc(-c2cc3ccccc3oc2=O)nn1 noted as Non-toxic

----------
target entity: Nitric oxide synthase 3 (Rattus norvegicus) (UniProt Q62600)
Sequence (Q62600 whole entry): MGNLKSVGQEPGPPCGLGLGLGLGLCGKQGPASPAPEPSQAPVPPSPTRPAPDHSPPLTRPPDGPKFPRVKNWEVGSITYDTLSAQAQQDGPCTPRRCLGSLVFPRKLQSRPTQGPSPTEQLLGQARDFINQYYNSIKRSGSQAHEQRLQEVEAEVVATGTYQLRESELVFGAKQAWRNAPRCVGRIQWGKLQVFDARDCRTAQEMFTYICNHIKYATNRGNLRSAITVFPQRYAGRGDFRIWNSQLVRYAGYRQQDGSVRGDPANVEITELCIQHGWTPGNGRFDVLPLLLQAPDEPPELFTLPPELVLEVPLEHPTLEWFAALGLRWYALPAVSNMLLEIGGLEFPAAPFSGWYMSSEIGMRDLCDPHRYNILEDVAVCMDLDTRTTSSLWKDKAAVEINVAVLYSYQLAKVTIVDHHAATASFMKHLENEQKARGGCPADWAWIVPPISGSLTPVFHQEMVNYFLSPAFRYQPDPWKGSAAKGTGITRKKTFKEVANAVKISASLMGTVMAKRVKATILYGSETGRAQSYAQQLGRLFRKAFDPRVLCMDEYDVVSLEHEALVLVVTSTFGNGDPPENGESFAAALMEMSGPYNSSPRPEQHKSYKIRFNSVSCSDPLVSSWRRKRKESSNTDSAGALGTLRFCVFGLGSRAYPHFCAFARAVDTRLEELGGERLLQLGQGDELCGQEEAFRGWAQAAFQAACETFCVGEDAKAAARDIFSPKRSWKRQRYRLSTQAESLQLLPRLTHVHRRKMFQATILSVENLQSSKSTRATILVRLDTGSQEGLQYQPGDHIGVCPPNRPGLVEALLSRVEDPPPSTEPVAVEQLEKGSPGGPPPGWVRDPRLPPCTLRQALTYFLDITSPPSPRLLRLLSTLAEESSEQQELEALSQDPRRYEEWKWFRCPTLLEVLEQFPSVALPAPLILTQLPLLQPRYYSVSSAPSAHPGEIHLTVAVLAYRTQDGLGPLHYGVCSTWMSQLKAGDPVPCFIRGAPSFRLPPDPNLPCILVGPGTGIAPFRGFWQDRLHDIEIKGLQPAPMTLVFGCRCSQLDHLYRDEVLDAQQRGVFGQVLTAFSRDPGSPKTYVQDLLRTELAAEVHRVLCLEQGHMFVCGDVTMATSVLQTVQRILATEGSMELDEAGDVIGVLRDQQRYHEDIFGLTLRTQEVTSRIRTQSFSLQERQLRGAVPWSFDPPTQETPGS
measurement protocol: Inhibition of eNOS in rat PMEC assessed as reduction in nitrite level at 100 uM after 48 hrs by Griess method
Activity calls are given as the source filed them. The rule behind the calls is not given here.
Please answer using one outcome listed in y (active), n (inactive)

Check the results log: what was the call for CCCCCCCCn1cc(-c2cc3ccccc3oc2=O)nn1 ?
n

Short answer needed: outcome of this test for COC(=O)[C@@H](N)CCCNC(=N)N[N+](=O)[O-] ?
y

Identify the outcome logged in this assay for the compound shown: CCCCCCn1cc(-c2cc3ccccc3oc2=O)nn1
y

Outcome logged for CCCCCCCCCCn1cc(-c2cc3ccccc3oc2=O)nn1 in this assay:
n

Could you check what this test reported for O=c1oc2ccccc2cc1-c1cn(-c2ccccc2)nn1 ?
n
